The origin of these recorded values is patent US6136558A.

- measured-target: ErbB-3 receptor-Ig fusion (human) (UniProt P21860)
- method-summary: displacement of 125I-HRG-β1 177-244 from ErbB-3-Ig
log10 EC50 overview
For clarity, the numbers are log10 values of EC50 expressed in nM.

{"columns": ["binder", "numeric-readout"],
 "data": [
  ["Trx-HRG-β1 146-244 N192A fusion (ligand) DDDDKAYVSSESPIRISVSTEGANTSSSTSTSTTGTSHLVKCAEKEKTFCVAGGECFMVKDLSNPSRYLCKCPNEFTGDRCQNYVMASFYKHLGIEFMEAEELY", 3.21],
  ["Trx-HRG-β1 146-244 F216A fusion (ligand) DDDDKAYVSSESPIRISVSTEGANTSSSTSTSTTGTSHLVKCAEKEKTFCVNGGECFMVKDLSNPSRYLCKCPNEATGDRCQNYVMASFYKHLGIEFMEAEELY", 3.41]
]}

The binder listed as Trx-HRG-β1 146-244 E215A fusion (ligand) DDDDKAYVSSESPIRISVSTEGANTSSSTSTSTTGTSHLVKCAEKEKTFCVNGGECFMVKDLSNPSRYLCKCPNAFTGDRCQNYVMASFYKHLGIEFMEAEELY shows log10 EC50 equal to 2.19

The binder listed as Trx-HRG-β1 146-244 G194A fusion (ligand) DDDDKAYVSSESPIRISVSTEGANTSSSTSTSTTGTSHLVKCAEKEKTFCVNGAECFMVKDLSNPSRYLCKCPNEFTGDRCQNYVMASFYKHLGIEFMEAEELY shows log10 EC50 equal to 3.08

The binder listed as Trx-HRG-β1 146-244 G218A fusion (ligand) DDDDKAYVSSESPIRISVSTEGANTSSSTSTSTTGTSHLVKCAEKEKTFCVNGGECFMVKDLSNPSRYLCKCPNEFTADRCQNYVMASFYKHLGIEFMEAEELY shows log10 EC50 equal to 2.82

The binder listed as TH-WT (thioredoxin fused at its C-terminus to wild-type HRG-β1 146-244) (ligand) DDDDKAYVSSESPIRISVSTEGANTSSSTSTSTTGTSHLVKCAEKEKTFCVNGGECFMVKDLSNPSRYLCKCPNEFTGDRCQNYVMASFYKHLGIEFMEAEELY shows log10 EC50 equal to 1.68

The binder listed as Trx-HRG-β1 146-244 L179A fusion (ligand) DDDDKAYVSSESPIRISVSTEGANTSSSTSTSTTGTSHAVKCAEKEKTFCVNGGECFMVKDLSNPSRYLCKCPNEFTGDRCQNYVMASFYKHLGIEFMEAEELY shows log10 EC50 equal to 2.60

The binder listed as Trx-HRG-β1 146-244 P205A fusion (ligand) DDDDKAYVSSESPIRISVSTEGANTSSSTSTSTTGTSHLVKCAEKEKTFCVNGGECFMVKDLSNASRYLCKCPNEFTGDRCQNYVMASFYKHLGIEFMEAEELY shows log10 EC50 equal to 1.60
